test system: Wolbachia pipientis; experiment: Anti-Wolbachia Cell-Based Screen; assay type: functional; set-up: scale not given: in the data most compounds retested in dose-response had high values; conditions: 5 µM
Out of some 48,000 compounds screened, about 13,000 (27%) showed an effect of 50% or more. The list shows a part of the results.
quantity: Percent Effect (%)
Give bare numbers, in %.

compound=COc1ccc(C(=O)N2CCC(Oc3ccccc3C)(C(=O)O)CC2)o1 recorded_value=-4.68
compound=CCOc1ccc(S(=O)(=O)NCCCc2ccc(N(C)C)cc2)cc1C recorded_value=28.94

// batch mode: one Percent Effect value per listed entry
1. O=C(c1ccno1)N1CCN2C(=O)N(Cc3ccc(F)cc3)C[C@H]2C1
2. O=C(NC1CCS(=O)(=O)C1)c1sccc1-c1ccc(F)cc1 (stereo unspecified)
3. CSc1ccc(CN(C(=O)c2cc[nH]n2)C2CC2)cc1
4. COC(=O)CSCc1nc(-c2ccc(Cl)cc2)no1

1. -2.469
2. 12.15
3. -13.27
4. -16.66

// batch mode: one Percent Effect value per listed entry
1. COc1ccc(CN(CC2CCCO2)C(=O)CN2CCOC2=O)cc1 (stereo unspecified)
2. O=C(CN1CCOC1=O)N(Cc1ccccc1)Cc1nccs1
3. CC(C)Oc1cccc(C(=O)C2CCCN(C(=O)c3cncs3)C2)c1 (stereo unspecified)
4. COc1ccccc1CC(=O)N1CCCC(c2nccn2CC(N)=O)C1 (stereo unspecified)

1. 10.27
2. 101.3
3. 11.61
4. 0.4607

Can you share its Percent Effect? I mean this compound: CC(C)[C@@H]1CN(c2ccc(C(F)(F)F)cn2)C[C@H]1NS(C)(=O)=O
-16.11
